# target_of_assay: T1, P17-His protein (human CD40 antigen) (human, UniProt P25942 21-193, limits assumed)
# T1 construct: also called human CD40 antigen (P17-His)
# assay_details: BLI (Fortebio Octet RED96), antibody on Protein A sensor, P17-His 5-40 nM
property_measured: kon (M⁻¹ s⁻¹)
Give bare numbers, in M⁻¹ s⁻¹.

// solved cases for kon follow
binder	meas_value
C8-5 antibody (antibody, V domains shown) VH: EVQLLESGGGLVRPGGSLRLSCAASGFTFGSYEMDWVRQAPGKGLEWVSYISSSGETTDYADSVKPRFTVSRDNSKNLLYLQMNSLRAEDTAVYYCARDVFFFDSSGDNGAYGMDVWGQGTMVTVSS VL: DIQLTQSPSSLTASVGDRVTITCRSSQGIRSSLAWYQQKPGKPPKLLIYGGSSLEGGVPSRFSGSGSGTDFTLTISSLQPEDFATYYCQQLNSFPSTFGQGTKLEIK	994000
C8-10 antibody (antibody, V domains shown) VH: EVQLLESGGGLVRPGGSLRLSCAASGFTFGSYEMNWVRQAPGKGLEWVSYISSSGETTDYADSVKGRFTVSRDNSKNLLYLQMNSLRAEDTAVYYCARDVFFFDSSGFPGAYGMDVWGQGTMVTVSS VL: DIQLTQSPSSLTASVGDRVTITCRSSQGIRSSLAWYQQKPGKPPKLLIYGASSLEGGVPSRFSGSGSGTDFTLTISSLQPEDFATYYCQQLNSFPSTFGQGTKLEIK	1.24e+06

Let us examine a further case.
Kindly note the recorded kon for C8-11 antibody (antibody, V domains shown) VH: EVQLLESGGGLVRPGGSLRLSCAASGFTPGSYEMNWVRQAPGKGLEWVSYISSAGETTDYADSVKGRFTVSRDNSKNLLYLQMNSLRAEDTAVYYCARDVFFFDSSGDNGAYGMDVWGQGTMVTVSS VL: DIQLTQSPSSLTASVGDRVTITCRSSQGIRSSLAWYQQKPGKPPKLLIYGASSLLGGVPSRFSGSGSGTDFTLTISSLQPEDFATYYCQQLNSFPSTFGQGTKLEIK , which is 1.6e+06
